TGT: CST–PP (CST–polymerase α–primase)
PROTOCOL_DESCRIPTION: CST–PP binding to template DNA (EMSA) inhibition
Set-up: species or system human
CONDITION_INFO: template 9xTEL, Na+/K+; 25 nM CST–PP, 25 nM template; read-out: IC50binding
Description: To test directly if TMPyP4 inhibited CST–PP by preventing association with the templates, we next measured the effect of the drug on the proportion of DNA bound by CST–PP. We used the same conditions as in the synthesis reaction and observed that the DNA was about half bound in the absence of an inhibitor. We prepared DNA templates with an increasing concentration of TMPyP4 as before, then incubated with CST–PP and analyzed by EMSA (electrophoretic mobility shift assay) (Fig. 2A). […]
pIC50: −log10 of the molar value.
READOUT: pIC50

MOLECULE_SMILES	TGT	OBSERVED_RESULT
C[n+]1ccc(-c2c3nc(c(-c4cc[n+](C)cc4)c4ccc([nH]4)c(-c4cc[n+](C)cc4)c4ccc([nH]4)c(-c4cc[n+](C)cc4)c4nc2C=C4)C=C3)cc1	CST–PP (CST–polymerase α–primase)	6.59
NCCOc1cc(C(=O)Nc2cc(OCCN)c3ccccc3n2)nc(C(=O)Nc2cc(OCCN)c3ccccc3n2)c1	CST–PP (CST–polymerase α–primase)	6.96
